Tested on: Staphylococcus aureus
Test summary: Antibacterial activity against methicillin resistant Staphylococcus aureus NCTC 10442 by microbroth dilution assay
Assay type: functional
For each entry below, report its MIC value.
Please respond with the number in µg/mL and leave the unit unwritten.

Enquiry: Recorded MIC for CCCCCN1c2ccccc2Sc2ccc(OCC(=O)N[C@@H](CCCNC(=N)N)C(=O)N[C@@H](CCCNC(=N)N)C(=O)OC)cc21 with Staphylococcus aureus, please?
Return: 6.25

Enquiry: Recorded MIC for CCCCCOc1ccc2c(c1)N(CCCN)c1ccccc1S2 with Staphylococcus aureus, please?
Return: 3.12

Enquiry: Recorded MIC for CCCCCOc1ccc2c(c1)N(CCCCNC(=N)N)c1ccccc1S2 with Staphylococcus aureus, please?
Return: 1.56

Enquiry: Recorded MIC for CCCCCCCCCN1c2ccccc2Sc2ccc(OCC(=O)N[C@@H](CCCNC(=N)N)C(=O)N[C@@H](CCCNC(=N)N)C(=O)OC)cc21 with Staphylococcus aureus, please?
Return: 1.56
